Taken from PubChem BioAssay AID2060887.

Overview of reported pIC50 across a group of molecules:
Tested on: 782815-120-R-J1-PDC complex spheroid viability
Experiment: Anticancer human tumor 782815-120-R-J1-PDC patient-derived colon adenocarcinoma cell line growth inhibition [RAS]
Conditions: curve of first compound; second compound 0.01 µM
From the text: RAS pathway inhibitors in Combinations in Complex Spheroids A high-throughput screen of multi-cell type tumor spheroids was designed to identify active combinations of RAS pathway inhibitors and targeted small molecules. Complex spheroids include a stromal component modeled by human endothelial cells (HUVEC) and fibroblasts modeled by human mesenchymal stem cells (MSCs). […] Compounds. […] If the clinical Cmax for an agent had not been determined, the highest concentration tested was 10 microM. […]
pIC50: −log10 of the molar value.

Molecule: CCC(CC)c1cc(NC2CCC(N)C2)n2nccc2n1 (centres undefined) + C=CC(=O)N1CCN(c2nc(OCC3CCCN3C)nc3c(F)c(-c4nc(N)cc(C)c4C(F)(F)F)c(Cl)cc23)C(C)C1
Target or test system: 782815-120-R-J1-PDC complex spheroid viability
Censoring sign: =
pIC50: 5.63
--
Molecule: Nc1ccn(C2OC(CO)C(O)C2(F)F)c(=O)n1 (centres undefined) + C=CC(=O)N1CCN(c2nc(OCC3CCCN3C)nc3c(F)c(-c4nc(N)cc(C)c4C(F)(F)F)c(Cl)cc23)C(C)C1
Target or test system: 782815-120-R-J1-PDC complex spheroid viability
Censoring sign: =
pIC50: 7.27
--
Molecule: CC(=O)OC12COC1CC(O)C1(C)C(=O)C(O)C3=C(C)C(OC(=O)C(O)C(NC(=O)OC(C)(C)C)c4ccccc4)CC(O)(C(OC(=O)c4ccccc4)C21)C3(C)C (centres undefined) + C=CC(=O)N1CCN(c2nc(OCC3CCCN3C)nc3c(F)c(-c4nc(N)cc(C)c4C(F)(F)F)c(Cl)cc23)C(C)C1
Target or test system: 782815-120-R-J1-PDC complex spheroid viability
Censoring sign: >
pIC50: 7.50
--
Molecule: Cc1nc(N2CCC3(CC2)COC(C)C3N)c(CO)nc1Sc1ccnc(N)c1Cl (centres undefined) + C=CC(=O)N1CCN(c2nc(OCC3CCCN3C)nc3c(F)c(-c4nc(N)cc(C)c4C(F)(F)F)c(Cl)cc23)C(C)C1
Target or test system: 782815-120-R-J1-PDC complex spheroid viability
Censoring sign: <
pIC50: 5.00

----------
System: 782815-120-R-J1-PDC complex spheroid viability
Test: Anticancer human tumor 782815-120-R-J1-PDC cell line growth inhibition [RAS];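 also: spheroids exposed to compounds for 7 days before reading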;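 as to viability, T/C: 100% = DMSO vehicle control viability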
Conditions: second compound 0.0316 µM; first compound 0.00316 µM; stronger effect = lower value
Below, each entry is listed alongside its reported viability, T/C.

Molecule: Nc1ccn(C2OC(CO)C(O)C2(F)F)c(=O)n1 (stereo unspecified) + C#Cc1c(F)ccc2cc(O)cc(-c3ncc4c(N5CC6CCC(C5)N6)nc(OCC56CCCN5CC(F)C6)nc4c3F)c12
viability, T/C (%): 103
//
Molecule: O=C(c1ccc(F)c(F)c1Nc1ccc(I)cc1F)N1CC(O)([C@@H]2CCCCN2)C1 + C=CC(=O)N1CCN(c2nc(OCC3CCCN3C)nc3c(F)c(-c4nc(N)cc(C)c4C(F)(F)F)c(Cl)cc23)C(C)C1
viability, T/C (%): 99.3
//
Molecule: CCN1CCN(Cc2ccc(Nc3ncc(F)c(-c4cc(F)c5nc(C)n(C(C)C)c5c4)n3)nc2)CC1 + C=CC(=O)N1CCN(c2nc(OCC3CCCN3C)nc3c(F)c(-c4nc(N)cc(C)c4C(F)(F)F)c(Cl)cc23)C(C)C1
viability, T/C (%): 102
//
Molecule: C=CC(=O)N1CCN(c2nc(OCC3CCCN3C)nc3c(F)c(-c4nc(N)cc(C)c4C(F)(F)F)c(Cl)cc23)C(C)C1 (stereo unspecified) + C#Cc1c(F)ccc2cc(O)cc(-c3ncc4c(N5CC6CCC(C5)N6)nc(OCC56CCCN5CC(F)C6)nc4c3F)c12
viability, T/C (%): 98.9
//
Molecule: O=C(c1ccc(F)c(F)c1Nc1ccc(I)cc1F)N1CC(O)([C@@H]2CCCCN2)C1 + C#Cc1c(F)ccc2cc(O)cc(-c3ncc4c(N5CC6CCC(C5)N6)nc(OCC56CCCN5CC(F)C6)nc4c3F)c12
viability, T/C (%): 95.6
//
Molecule: CC(C)n1nc(-c2ccc3oc(N)nc3c2)c2c(N)ncnc21 + C#Cc1c(F)ccc2cc(O)cc(-c3ncc4c(N5CC6CCC(C5)N6)nc(OCC56CCCN5CC(F)C6)nc4c3F)c12
viability, T/C (%): 105
//
Molecule: CCN1CCN(Cc2ccc(Nc3ncc(F)c(-c4cc(F)c5nc(C)n(C(C)C)c5c4)n3)nc2)CC1 + C#Cc1c(F)ccc2cc(O)cc(-c3ncc4c(N5CC6CCC(C5)N6)nc(OCC56CCCN5CC(F)C6)nc4c3F)c12
viability, T/C (%): 103
//
Molecule: C=CC(=O)Nc1cc(Nc2nccc(-c3cn(C)c4ccccc34)n2)c(OC)cc1N(C)CCN(C)C + C=CC(=O)N1CCN(c2nc(OCC3CCCN3C)nc3c(F)c(-c4nc(N)cc(C)c4C(F)(F)F)c(Cl)cc23)C(C)C1
viability, T/C (%): 98.3
//
Molecule: Nc1ccn(C2OC(CO)C(O)C2(F)F)c(=O)n1 (stereo unspecified) + C=CC(=O)N1CCN(c2nc(OCC3CCCN3C)nc3c(F)c(-c4nc(N)cc(C)c4C(F)(F)F)c(Cl)cc23)C(C)C1
viability, T/C (%): 99
//
Molecule: C=CC(=O)Nc1cc(Nc2nccc(-c3cn(C)c4ccccc34)n2)c(OC)cc1N(C)CCN(C)C + C#Cc1c(F)ccc2cc(O)cc(-c3ncc4c(N5CC6CCC(C5)N6)nc(OCC56CCCN5CC(F)C6)nc4c3F)c12
viability, T/C (%): 99.3
//
Molecule: CC(C)n1nc(-c2ccc3oc(N)nc3c2)c2c(N)ncnc21 + C=CC(=O)N1CCN(c2nc(OCC3CCCN3C)nc3c(F)c(-c4nc(N)cc(C)c4C(F)(F)F)c(Cl)cc23)C(C)C1
viability, T/C (%): 98.7

----------
System: 782815-120-R-J1-PDC complex spheroid viability
Experiment: Anticancer human tumor 782815-120-R-J1-PDC cell line growth inhibition [RAS];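 also: spheroids exposed to compounds for 7 days before reading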;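 as to viability, T/C: 100% = DMSO vehicle control viability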
Settings: second compound 0.316 µM; first compound 0.0316 µM; stronger effect = lower value

Molecule: Nc1ccn(C2OC(CO)C(O)C2(F)F)c(=O)n1 (centres undefined) + C#Cc1c(F)ccc2cc(O)cc(-c3ncc4c(N5CC6CCC(C5)N6)nc(OCC56CCCN5CC(F)C6)nc4c3F)c12
Units text: %
viability, T/C: 58.7
--
Molecule: C=CC(=O)Nc1cc(Nc2nccc(-c3cn(C)c4ccccc34)n2)c(OC)cc1N(C)CCN(C)C + C=CC(=O)N1CCN(c2nc(OCC3CCCN3C)nc3c(F)c(-c4nc(N)cc(C)c4C(F)(F)F)c(Cl)cc23)C(C)C1
Units text: %
viability, T/C: 92.3
--
Molecule: CCC(CC)c1cc(NC2CCC(N)C2)n2nccc2n1 (centres undefined) + C=CC(=O)N1CCN(c2nc(OCC3CCCN3C)nc3c(F)c(-c4nc(N)cc(C)c4C(F)(F)F)c(Cl)cc23)C(C)C1
Units text: %
viability, T/C: 103
--
Molecule: C[C@@H](NC(=O)c1ncnc(N)c1Cl)c1ncc(C(=O)Nc2cc(C(F)(F)F)c(Cl)cn2)s1 + C#Cc1c(F)ccc2cc(O)cc(-c3ncc4c(N5CC6CCC(C5)N6)nc(OCC56CCCN5CC(F)C6)nc4c3F)c12
Units text: %
viability, T/C: 104
--
Molecule: Cc1nc(N2CCC3(CC2)COC(C)C3N)c(CO)nc1Sc1ccnc(N)c1Cl (centres undefined) + C=CC(=O)N1CCN(c2nc(OCC3CCCN3C)nc3c(F)c(-c4nc(N)cc(C)c4C(F)(F)F)c(Cl)cc23)C(C)C1
Units text: %
viability, T/C: 103
--
Molecule: C=CC(=O)Nc1cc(Nc2nccc(-c3cn(C)c4ccccc34)n2)c(OC)cc1N(C)CCN(C)C + C#Cc1c(F)ccc2cc(O)cc(-c3ncc4c(N5CC6CCC(C5)N6)nc(OCC56CCCN5CC(F)C6)nc4c3F)c12
Units text: %
viability, T/C: 105
--
Molecule: CC(Nc1ccc2c(c1)OCCn1cc(N3C(=O)OCC3C(F)F)nc1-2)C(N)=O (centres undefined) + C#Cc1c(F)ccc2cc(O)cc(-c3ncc4c(N5CC6CCC(C5)N6)nc(OCC56CCCN5CC(F)C6)nc4c3F)c12
Units text: %
viability, T/C: 99
--
Molecule: CC(C)NCC(C(=O)N1CCN(c2ncnc3c2C(C)CC3O)CC1)c1ccc(Cl)cc1 (centres undefined) + C=CC(=O)N1CCN(c2nc(OCC3CCCN3C)nc3c(F)c(-c4nc(N)cc(C)c4C(F)(F)F)c(Cl)cc23)C(C)C1
Units text: %
viability, T/C: 106
--
Molecule: Nc1ccn(C2OC(CO)C(O)C2(F)F)c(=O)n1 (centres undefined) + C=CC(=O)N1CCN(c2nc(OCC3CCCN3C)nc3c(F)c(-c4nc(N)cc(C)c4C(F)(F)F)c(Cl)cc23)C(C)C1
Units text: %
viability, T/C: 61.6
--
Molecule: CCN1CCN(Cc2ccc(Nc3ncc(F)c(-c4cc(F)c5nc(C)n(C(C)C)c5c4)n3)nc2)CC1 + C#Cc1c(F)ccc2cc(O)cc(-c3ncc4c(N5CC6CCC(C5)N6)nc(OCC56CCCN5CC(F)C6)nc4c3F)c12
Units text: %
viability, T/C: 100
--
Molecule: CC1(O)CCCC1n1c(=O)c(C(F)F)cc2cnc(NC3CCN(S(C)(=O)=O)CC3)nc21 (centres undefined) + C#Cc1c(F)ccc2cc(O)cc(-c3ncc4c(N5CC6CCC(C5)N6)nc(OCC56CCCN5CC(F)C6)nc4c3F)c12
Units text: %
viability, T/C: 78.6
--
Molecule: CCC(CC)c1cc(NC2CCC(N)C2)n2nccc2n1 (centres undefined) + C#Cc1c(F)ccc2cc(O)cc(-c3ncc4c(N5CC6CCC(C5)N6)nc(OCC56CCCN5CC(F)C6)nc4c3F)c12
Units text: %
viability, T/C: 105
--
Molecule: O=C(c1ccc(F)c(F)c1Nc1ccc(I)cc1F)N1CC(O)([C@@H]2CCCCN2)C1 + C=CC(=O)N1CCN(c2nc(OCC3CCCN3C)nc3c(F)c(-c4nc(N)cc(C)c4C(F)(F)F)c(Cl)cc23)C(C)C1
Units text: %
viability, T/C: 66.2
--
Molecule: O=C(c1ccc(F)c(F)c1Nc1ccc(I)cc1F)N1CC(O)([C@@H]2CCCCN2)C1 + C#Cc1c(F)ccc2cc(O)cc(-c3ncc4c(N5CC6CCC(C5)N6)nc(OCC56CCCN5CC(F)C6)nc4c3F)c12
Units text: %
viability, T/C: 63.1
--
Molecule: Cc1nc(N2CCC3(CC2)COC(C)C3N)c(CO)nc1Sc1ccnc(N)c1Cl (centres undefined) + C#Cc1c(F)ccc2cc(O)cc(-c3ncc4c(N5CC6CCC(C5)N6)nc(OCC56CCCN5CC(F)C6)nc4c3F)c12
Units text: %
viability, T/C: 104
--
Molecule: CC(Nc1ccc2c(c1)OCCn1cc(N3C(=O)OCC3C(F)F)nc1-2)C(N)=O (centres undefined) + C=CC(=O)N1CCN(c2nc(OCC3CCCN3C)nc3c(F)c(-c4nc(N)cc(C)c4C(F)(F)F)c(Cl)cc23)C(C)C1
Units text: %
viability, T/C: 93.6
--
Molecule: NC1c2ccccc2OC12CCN(c1cnc3c(N4CCCc5ncccc54)n[nH]c3n1)CC2 (centres undefined) + C=CC(=O)N1CCN(c2nc(OCC3CCCN3C)nc3c(F)c(-c4nc(N)cc(C)c4C(F)(F)F)c(Cl)cc23)C(C)C1
Units text: %
viability, T/C: 98
--
Molecule: CC(=O)OC12COC1CC(O)C1(C)C(=O)C(O)C3=C(C)C(OC(=O)C(O)C(NC(=O)OC(C)(C)C)c4ccccc4)CC(O)(C(OC(=O)c4ccccc4)C21)C3(C)C (centres undefined) + C=CC(=O)N1CCN(c2nc(OCC3CCCN3C)nc3c(F)c(-c4nc(N)cc(C)c4C(F)(F)F)c(Cl)cc23)C(C)C1
Units text: %
viability, T/C: 37.4
--
Molecule: C[C@@H](NC(=O)c1ncnc(N)c1Cl)c1ncc(C(=O)Nc2cc(C(F)(F)F)c(Cl)cn2)s1 + C=CC(=O)N1CCN(c2nc(OCC3CCCN3C)nc3c(F)c(-c4nc(N)cc(C)c4C(F)(F)F)c(Cl)cc23)C(C)C1
Units text: %
viability, T/C: 108
